All values here come from ChEMBL document CHEMBL1144487.

assay: Cytotoxicity against rat NRK 52E cells after 5 days; format: cell-based; conditions: read-out: LC50
The threshold is 0.6 µM. Values of CC50 at 120 h beneath it are tagged True; values meeting or exceeding it are tagged False.

Below are worked cases with known answers.
State whether 0.6 µM exceeds CC50 at 120 h recorded for "NC1=CC(=O)c2ccc(-c3[nH]ccc4c5ccccc5nc3-4)nc2C1=O" .
True

State whether 0.6 µM exceeds CC50 at 120 h recorded for "COC(=O)c1nc(-c2ccc3c(n2)C(=O)C(NC(=O)CCl)=CC3=O)c2[nH]c3ccccc3c2c1C" .
True

State whether 0.6 µM exceeds CC50 at 120 h recorded for "CCCCOC(=O)c1cc2c([nH]c3ccccc32)c(-c2ccc3c(n2)C(=O)C(NC(=O)CCl)=CC3=O)n1" .
False

State whether 0.6 µM exceeds CC50 at 120 h recorded for "CCCC(=O)NC1=CC(=O)c2ccc(-c3nc(C(=O)OC)c(C)c4c3[nH]c3ccccc34)nc2C1=O" .
True

State whether 0.6 µM exceeds CC50 at 120 h recorded for "O=Cc1ccc2c(n1)C(=O)C(NC(=O)CCl)=CC2=O" .
False

State whether 0.6 µM exceeds CC50 at 120 h recorded for "CCCCOC(=O)c1cc2c([nH]c3ccccc32)c(-c2ccc3c(n2)C(=O)C(NC(=O)C(C)C)=CC3=O)n1" .
False

***
State whether 0.6 µM exceeds CC50 at 120 h recorded for "CCCC(=O)NC1=CC(=O)c2ccc(-c3nc(C(=O)OCCC(C)C)cc4c3[nH]c3ccccc34)nc2C1=O" .
False

State whether 0.6 µM exceeds CC50 at 120 h recorded for "Cc1ccc2c(n1)C(=O)C(NCCCCO)=CC2=O" .
False

State whether 0.6 µM exceeds CC50 at 120 h recorded for "CC(C)CCOC(=O)c1cc2c([nH]c3ccccc32)c(-c2ccc3c(n2)C(=O)C(NC(=O)CCl)=CC3=O)n1" .
False

State whether 0.6 µM exceeds CC50 at 120 h recorded for "CC(=O)NC1=CC(=O)c2ccc(C(=O)O)nc2C1=O" .
False

State whether 0.6 µM exceeds CC50 at 120 h recorded for "CCCCOC(=O)c1cc2c([nH]c3ccc(F)cc32)c(-c2ccc3c(n2)C(=O)C(NC(C)=O)=CC3=O)n1" .
False

State whether 0.6 µM exceeds CC50 at 120 h recorded for "COC1=CC(=O)c2ccc(C)nc2C1=O" .
False

State whether 0.6 µM exceeds CC50 at 120 h recorded for "CC(=O)NC1=CC(=O)c2ccc(-c3[nH]c(CO)cc4c5ccccc5nc3-4)nc2C1=O" .
True

State whether 0.6 µM exceeds CC50 at 120 h recorded for "CC(=O)NC1=CC(=O)c2ccc(-c3nc(C(=O)OCCN(C)C)cc4c3[nH]c3ccccc34)nc2C1=O" .
True

State whether 0.6 µM exceeds CC50 at 120 h recorded for "Cc1ccc2c(n1)C(=O)C(NC(=O)C(C)C)=CC2=O" .
False

State whether 0.6 µM exceeds CC50 at 120 h recorded for "CC(=O)NC1=CC(=O)c2ccc(C=O)nc2C1=O" .
False

State whether 0.6 µM exceeds CC50 at 120 h recorded for "CC(=O)NC1=CC(=O)c2ccc(C)nc2C1=O" .
False

State whether 0.6 µM exceeds CC50 at 120 h recorded for "CCOC(=O)c1cc2c([nH]c3ccccc32)c(-c2ccc3c(n2)C(=O)C(NC(C)=O)=CC3=O)n1" .
True

State whether 0.6 µM exceeds CC50 at 120 h recorded for "CC(=O)NC1=CC(=O)c2cc(C)cnc2C1=O" .
False
